Entry source: a collection of fitness landscapes (doi:10.1016/j.celrep.2020.107928)

Listing: one-hybrid fitness for binding NBS DNA of selected variants
B1: Caulobacter ParB omega fusion; a variant is named by its letters at X, in order, B8GW30 (parent)
chain: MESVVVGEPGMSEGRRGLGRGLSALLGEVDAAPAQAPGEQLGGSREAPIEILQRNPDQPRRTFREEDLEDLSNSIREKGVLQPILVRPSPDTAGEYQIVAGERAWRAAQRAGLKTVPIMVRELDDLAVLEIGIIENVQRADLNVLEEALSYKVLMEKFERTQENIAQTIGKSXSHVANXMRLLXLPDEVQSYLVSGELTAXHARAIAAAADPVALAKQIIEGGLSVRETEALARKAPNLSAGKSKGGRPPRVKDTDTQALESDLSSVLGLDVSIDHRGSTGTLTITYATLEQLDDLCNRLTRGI

Variants of: B1
Method description: one-hybrid fitness for binding NBS DNA (the Noc-binding site; scaled: cognate 1, non-cognate 0); higher = stronger binding
Condition parameters: with NBS DNA site
Whole data set: some 81,000 sequences, median “one-hybrid fitness for binding NBS DNA” near -0.1, cut for the highest 2% near 0.36. Many of the other results were omitted from the sample, so the highest values are more common in it than they were.
Endpoint label: one-hybrid fitness for binding NBS DNA

>  <Change>
QRPP

>  <Result>
≤ 0.2

$$$$
>  <Change>
QMYG

>  <Result>
≤ 0.2

$$$$
>  <Change>
VPAP

>  <Result>
≤ 0.2

$$$$
>  <Change>
KTVT

>  <Result>
≤ 0.2

$$$$
>  <Change>
LLMK

>  <Result>
≤ 0.2

$$$$
>  <Change>
QKSM

>  <Result>
≤ 0.2

$$$$
>  <Change>
QKSG

>  <Result>
≤ 0.2

$$$$
>  <Change>
PVKH

>  <Result>
≤ 0.2

$$$$
>  <Change>
QRNG

>  <Result>
0.381

$$$$
>  <Change>
TVTG

>  <Result>
≤ 0.2

$$$$
>  <Change>
QTYG

>  <Result>
≤ 0.2

$$$$
>  <Change>
QRQV

>  <Result>
0.397

$$$$
>  <Change>
PQAC

>  <Result>
≤ 0.2

$$$$
>  <Change>
QRFV

>  <Result>
0.275

$$$$
>  <Change>
TTYR

>  <Result>
≤ 0.2

$$$$
>  <Change>
NKRT

>  <Result>
≤ 0.2

$$$$
>  <Change>
MPVM

>  <Result>
≤ 0.2

$$$$
>  <Change>
GPRA

>  <Result>
≤ 0.2

$$$$
>  <Change>
QRDG

>  <Result>
≤ 0.2

$$$$
>  <Change>
TTVR

>  <Result>
≤ 0.2

$$$$
>  <Change>
QRIS

>  <Result>
0.546

$$$$
>  <Change>
TTKR

>  <Result>
0.372

$$$$
>  <Change>
DKRT

>  <Result>
≤ 0.2

$$$$
>  <Change>
LGEA

>  <Result>
≤ 0.2

$$$$
>  <Change>
QKST

>  <Result>
0.526

$$$$
>  <Change>
QAKR

>  <Result>
0.982

$$$$
>  <Change>
QRPS

>  <Result>
0.461

$$$$
>  <Change>
QTDG

>  <Result>
≤ 0.2

$$$$
>  <Change>
TTRR

>  <Result>
0.378

$$$$
>  <Change>
DFQV

>  <Result>
≤ 0.2

$$$$
>  <Change>
TTDR

>  <Result>
≤ 0.2

$$$$
>  <Change>
FMKS

>  <Result>
≤ 0.2

$$$$
>  <Change>
YTQC

>  <Result>
≤ 0.2

$$$$
>  <Change>
RKKH

>  <Result>
0.465

$$$$
>  <Change>
KTFT

>  <Result>
≤ 0.2

$$$$
>  <Change>
QRYG

>  <Result>
0.312

$$$$
>  <Change>
TCKR

>  <Result>
0.262

$$$$
>  <Change>
QKRT

>  <Result>
0.757

$$$$
>  <Change>
SFQV

>  <Result>
0.447

$$$$
>  <Change>
QRAV

>  <Result>
0.424

$$$$
>  <Change>
QKLY

>  <Result>
≤ 0.2

$$$$
>  <Change>
QMRG

>  <Result>
0.391

$$$$
>  <Change>
QCCV

>  <Result>
≤ 0.2

$$$$
>  <Change>
QRCV

>  <Result>
0.406

$$$$
>  <Change>
QAVR

>  <Result>
0.358

$$$$
>  <Change>
KTYT

>  <Result>
≤ 0.2

$$$$
